Entry source: PubChem BioAssay AID1946

- TARGET OR SYSTEM: Potassium voltage-gated channel subfamily KQT member 2 (Rattus norvegicus)
- TEST DETAILS: rat KCNQ2 channel inhibition by compounds alone, confirmation, counter-screen for hERG block protector project, cell-based, CHO, FluxOR thallium flux (AID 1946)
- MEASUREMENT CONDITIONS: CHO-KCNQ2 cells, FluxOR thallium flux fluorescence, at 10 µM
Out of some 2,400 compounds screened, about 180 (7.5%) were called active.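 How the source made its calls: active means readout below zero, meaning a drop past 3 SD under the dofetilide-free negative control mean; inactive means the rest.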 This excerpt belongs to a sample that is enriched for actives.
Outcomes: active, inactive

# MOLECULE, CAT
measured = [
    ("CC(=NCc1ccco1)c1c(O)n(-c2ccc(C)cc2)c(=O)[nH]c1=O", "inactive"),
    ("N#CC1=C(N)Oc2c(c(=O)oc3ccccc23)C1c1cccnc1 (stereo unspecified)", "inactive"),
    ("CCOC(=O)c1c(NS(=O)(=O)c2ccccc2)n(CCCOC)c2nc3ccccc3nc12", "inactive"),
    ("O=C1NC(=O)C(=Cc2ccc(-c3ccc(Cl)cc3)o2)C(=O)N1", "inactive"),
    ("CN1C(=O)/C(=C/c2ccc(Cl)s2)C(=O)NC1=S", "inactive"),
    ("O=C1CC(=O)N(c2cccc(C(F)(F)F)c2)C(=O)N1", "inactive"),
    ("O=c1[nH]c(=S)[nH]c(O)c1N=Nc1ccc(S(=O)(=O)N2CCc3ccccc32)cc1", "inactive"),
    ("Cc1ccc(S(=O)(=O)NC(Cc2cnc[nH]2)C(=O)O)cc1 (stereo unspecified)", "inactive"),
    ("C=CCn1c(O)c(/C=C2/C=c3ccccc3=N2)c(=O)[nH]c1=S", "inactive"),
    ("NCCc1ccc(S(N)(=O)=O)cc1", "active"),
    ("O=C1NC(=S)N(c2ccc(F)cc2)C(=O)/C1=C/c1ccco1", "inactive"),
]
